Entries and their pIC50
- system-tested: one or more of HDAC-4, HDAC-5, HDAC-6, HDAC-7, HDAC-8, HDAC-9, HDAC-10 and HDAC-11
- assay-text: Inhibition of histone deacetylase enzymatic activity (summary statement over isoforms)
- test-context: Table 3, selected examples; HDAC isoform not given
pIC50: −log10 of the molar value.

Guide cases for pIC50, answers given:
[
  {
    "molecule": "O=C(NO)C(c1cccs1)c1cccs1 [Compound 1-23, N-hydroxy-2,2-di(thiophen-2-yl)acetamide]",
    "data-value": "4.82 to 6.00"
  },
  {
    "molecule": "CC(C)CCNc1ccc(C(C(=O)NO)c2ccccc2)cc1 (stereo not shown)",
    "data-value": "> 6.00"
  }
]

IN: Fill in: pIC50 of O=C(NO)C(c1ccccc1)c1ccc(-c2cccnc2)cc1 (stereo not shown) is ___
OUT: > 6.00

IN: Fill in: pIC50 of O=C(NO)C(c1ccccc1)c1ccc(-c2ccncc2)cc1 (stereo not shown) is ___
OUT: > 6.00

IN: Fill in: pIC50 of CCCS(=O)(=O)Nc1ccc(C(C(=O)NO)c2ccccc2)cc1 (stereo not shown) is ___
OUT: > 6.00

IN: Fill in: pIC50 of O=C(NO)C(c1ccccc1)N1CCN(c2ccccc2O)CC1 (stereo not shown) is ___
OUT: 4.82 to 6.00

IN: Fill in: pIC50 of COCCOCCOc1ccc(C(C(=O)NO)c2ccccc2)cc1 (stereo not shown) is ___
OUT: > 6.00

IN: Fill in: pIC50 of O=C(NO)C(c1ccccc1)C1CCCCC1 (stereo not shown) [Compound 1-10, 2-cyclohexyl-N-hydroxy-2-phenylacetamide] is ___
OUT: > 6.00

* * *

- system-tested: one or more of HDAC-4, HDAC-5, HDAC-6, HDAC-7, HDAC-8, HDAC-9, HDAC-10 and HDAC-11
- assay-text: Inhibition of histone deacetylase enzymatic activity (summary statement over isoforms)
- test-context: Table 3, selected examples; HDAC isoform not given
pIC50: −log10 of the molar value.
property-label: pIC50

Guide cases for pIC50, answers given:
[
  {
    "compound": "O=C(NO)C(Oc1ccc(F)c(Cl)c1)c1ccccc1 (stereo not shown)",
    "pIC50": "4.82 to 6.00"
  },
  {
    "compound": "O=C(NO)C(c1ccccc1)c1cccc(-c2ccncc2)c1 (stereo not shown)",
    "pIC50": "> 6.00"
  },
  {
    "compound": "O=C(COc1ccccc1)Nc1ccc(C(C(=O)NO)c2ccccc2)cc1 (stereo not shown)",
    "pIC50": "> 6.00"
  },
  {
    "compound": "C=CCOc1cccc(C(C(=O)NO)c2ccccc2)c1 (stereo not shown)",
    "pIC50": "4.82 to 6.00"
  },
  {
    "compound": "O=C(NO)C(c1ccccc1)N1CCC(c2ccccc2)CC1 (stereo not shown)",
    "pIC50": "> 6.00"
  }
]

IN: Fill in: pIC50 of COc1ncc(-c2ccc(C(C(=O)NO)c3ccccc3)cc2)cn1 (stereo not shown) is ___
OUT: > 6.00

IN: Fill in: pIC50 of CC(C)C(=O)ONC(=O)C(c1ccccc1)c1ccc(N2CCOCC2)cc1 (stereo not shown) is ___
OUT: 4.82 to 6.00

IN: Fill in: pIC50 of COCCOCCOc1cccc(C(C(=O)NO)c2ccccc2)c1 (stereo not shown) is ___
OUT: > 6.00

IN: Fill in: pIC50 of CC(C)(C)c1ccc(COc2ccc(C(C(=O)NO)c3ccccc3)cc2)cc1 (stereo not shown) is ___
OUT: > 6.00

IN: Fill in: pIC50 of O=C(NO)C(c1ccccc1)N1CCN(Cc2cccnc2)CC1 (stereo not shown) is ___
OUT: 4.82 to 6.00

Reference source for all entries: patent US9096565B2
